tgt: Induced myeloid leukemia cell differentiation protein Mcl-1 (Homo sapiens)
Sequence (Q07820 whole entry): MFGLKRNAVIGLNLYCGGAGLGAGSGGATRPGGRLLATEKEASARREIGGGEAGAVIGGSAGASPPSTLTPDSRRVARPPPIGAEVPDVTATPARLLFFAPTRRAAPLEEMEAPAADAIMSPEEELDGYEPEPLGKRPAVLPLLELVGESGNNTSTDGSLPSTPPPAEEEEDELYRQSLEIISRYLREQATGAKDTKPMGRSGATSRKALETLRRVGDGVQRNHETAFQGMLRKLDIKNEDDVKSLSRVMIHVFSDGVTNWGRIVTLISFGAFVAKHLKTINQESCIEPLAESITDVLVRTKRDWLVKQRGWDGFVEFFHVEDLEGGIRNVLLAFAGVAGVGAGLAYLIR
method notes: modulators of Bim peptide binding to Mcl-1, dose response, biochemical, bead-based flow cytometry, multiplexed, human (AID 1329)
experimental parameters: inactive by the depositor's call
Please note: EC50 exactly at 6 µM is false (0). Only values below 6 µM get true (1).

[
  {
    "compound": "COc1ccc(-n2c(=O)c3ccccc3c3ccccc3c2=O)c(OC)c1",
    "category label": "false (0)"
  },
  {
    "compound": "CCN1C(=O)/C(=C/C=C2\\C=CN(CC)c3ccccc32)SC1=S",
    "category label": "false (0)"
  },
  {
    "compound": "Fc1ccc(C2=Nc3cccc4cccc(c34)N2)cc1",
    "category label": "false (0)"
  },
  {
    "compound": "O=C1/C(=C\\c2ccc(-c3ccccc3Cl)o2)SC(=S)N1CC1CCCO1 (configuration not stated)",
    "category label": "true (1)"
  },
  {
    "compound": "COc1cc2nc(=S)[nH]c(NCC3CCCO3)c2cc1OC (configuration not stated)",
    "category label": "true (1)"
  },
  {
    "compound": "COc1ccc(C)cc1-n1c(=O)c2ccccc2c2ccccc2c1=O",
    "category label": "false (0)"
  },
  {
    "compound": "O=C(Nc1ccccc1)c1ccc2nc(-c3ccco3)c(-c3ccco3)nc2c1",
    "category label": "false (0)"
  },
  {
    "compound": "Cc1cccc(OCC(=O)NCC(=O)NN=Cc2cc(Br)ccc2OCc2ccccc2)c1",
    "category label": "false (0)"
  },
  {
    "compound": "O=C(Nc1ccc2nc(-c3ccco3)c(-c3ccco3)nc2c1)N1CCN(c2ccccn2)CC1",
    "category label": "false (0)"
  },
  {
    "compound": "CCOCCCn1c(N)c(C(=O)Nc2sc3c(c2C(=O)OC)CCCC3)c2nc3ccccc3nc21",
    "category label": "true (1)"
  },
  {
    "compound": "O=S1(=O)N=C(N(CCO)N=C/C=C/c2ccccc2)c2ccccc21",
    "category label": "false (0)"
  },
  {
    "compound": "Cc1ccc(C(=O)/C=C/c2ccc(-c3ccc(C)cc3)o2)cc1",
    "category label": "true (1)"
  },
  {
    "compound": "COCCCn1c(N)c(C(=O)Nc2sc3c(c2C(=O)OC)CCCC3)c2nc3ccccc3nc21",
    "category label": "true (1)"
  },
  {
    "compound": "COc1ccc(OC)c(-n2c(=O)c3ccccc3c3ccccc3c2=O)c1",
    "category label": "false (0)"
  },
  {
    "compound": "CCCCNc1[nH]c(=S)nc2cc(OC)c(OC)cc12",
    "category label": "true (1)"
  },
  {
    "compound": "CCOC(=O)c1ccc(Nc2nc(C(=O)OCC)nc3ccccc23)cc1",
    "category label": "true (1)"
  },
  {
    "compound": "O=C(CSc1ccc2nnc(-c3ccccn3)n2n1)Nc1nccs1",
    "category label": "false (0)"
  },
  {
    "compound": "Cc1cc2n(c1)CCn1c(C)ccc1-2",
    "category label": "false (0)"
  },
  {
    "compound": "c1ccc(Nc2cccc(Nc3ccccc3)n2)cc1",
    "category label": "false (0)"
  },
  {
    "compound": "Cc1cc(-c2nnc3n2N=C(c2ccc(-c4ccccc4)cc2)CS3)[nH]n1",
    "category label": "false (0)"
  },
  {
    "compound": "COCCNc1[nH]c(=S)nc2cc(OC)c(OC)cc12",
    "category label": "true (1)"
  },
  {
    "compound": "Cc1nc2ncccn2c1-c1csc(Nc2ccccc2)n1",
    "category label": "false (0)"
  },
  {
    "compound": "CCOCCCNc1nc(S)nc2cc(OC)c(OC)cc12",
    "category label": "true (1)"
  },
  {
    "compound": "O=C(NCc1ccccc1)c1ccc2nc(-c3ccco3)c(-c3ccco3)nc2c1",
    "category label": "false (0)"
  },
  {
    "compound": "COc1ccc(/C=C/C(=O)c2cc(Br)ccc(=O)c2O)cc1",
    "category label": "false (0)"
  },
  {
    "compound": "Cc1ccc(C=NNC(=O)CSc2nnc(-c3ccc(Cl)cc3)n2-c2ccccc2)o1",
    "category label": "true (1)"
  },
  {
    "compound": "CN(N=C/C=C/c1ccccc1)C1=NS(=O)(=O)c2ccccc21",
    "category label": "true (1)"
  },
  {
    "compound": "Cc1ccc(-c2ccc(/C=C/C(=O)c3ccccc3)o2)cc1",
    "category label": "false (0)"
  },
  {
    "compound": "COCCNC(=S)Nc1cc(OC)c(OC)cc1C#N",
    "category label": "false (0)"
  },
  {
    "compound": "CCOC(=O)c1nc(Nc2ccc(C(=O)OC)cc2)c2ccccc2n1",
    "category label": "false (0)"
  },
  {
    "compound": "CN(N=Cc1ccncc1)C1=NS(=O)(=O)c2ccccc21",
    "category label": "true (1)"
  },
  {
    "compound": "CCOC(=O)c1c(O)nc2ccc(Cl)c3c2c1-c1ccccc1C3=O",
    "category label": "false (0)"
  },
  {
    "compound": "O=C1c2ccccc2-c2onc3ccc(N4CCCC4)c1c23",
    "category label": "false (0)"
  },
  {
    "compound": "Cc1cc2nn(-c3cccc4ccccc34)nc2cc1N",
    "category label": "true (1)"
  },
  {
    "compound": "C#CCn1cc(C=C2C(=O)c3ccccc3C2=O)c2ccccc21",
    "category label": "false (0)"
  },
  {
    "compound": "CN(C)c1ncc(C2=C(Cl)C(=O)C(N3CCCC3)=C(Cl)C2=O)s1",
    "category label": "true (1)"
  },
  {
    "compound": "COCCCNc1nc(S)nc2cc(OC)c(OC)cc12",
    "category label": "true (1)"
  },
  {
    "compound": "COc1cc2nc(=S)[nH]c(NCCc3ccc(S(N)(=O)=O)cc3)c2cc1OC",
    "category label": "true (1)"
  },
  {
    "compound": "O=C(/C=C/c1ccccc1Cl)c1ccccc(=O)c1O",
    "category label": "false (0)"
  },
  {
    "compound": "O=C(c1ccccc1)c1ccc2nc(-c3ccco3)c(-c3ccco3)nc2c1",
    "category label": "false (0)"
  },
  {
    "compound": "Clc1nc(NCc2cccnc2)nc(N2CCOCC2)n1",
    "category label": "false (0)"
  }
]
